Molecular target: Glutamyl aminopeptidase (Oryctolagus cuniculus)
Assay: Inhibition of aminopeptidase A (APA)
Label TRUE when Ki is strictly below 500 nM; at or above that, label FALSE.

NC(CS)CCCCC(=O)O (stereo not given) [6-Amino-7-mercapto-heptanoic acid] = FALSE

Q: Could you please tell me whether Ki recorded for NC(CS)CC(C(=O)O)C(=O)O (stereo not given) is less than 500 nM?
Ans: FALSE

Q: Identify whether the compound N[C@H](CS)CCCS(=O)(=O)O records Ki below 500 nM.
Ans: TRUE

Q: Dear colleague, could you confirm whether Ki of NC(CS)CCC(C(=O)O)C(=O)O (stereo not given) falls below 500 nM? Thanks.
Ans: TRUE
